- Tested on: HT29 colon
- ASSAY: NCI-60 one-dose screen, 48 h (100 = growth as untreated, 0 = no growth, -100 = all killed)
- RECORDED CONDITIONS: 10 µM unless noted
Compounds without any hit were thinned out: in the full panel of roughly 83,000, 20% have a hit. Active and inactive are the calls of the source. How the source made its calls: active means growth percent below 10; inactive means the rest.
MEASUREMENT KIND: growth

| COMPOUND | TEST TARGET | growth |
| --- | --- | --- |
| CCN1C(=O)N(CC)C2C1NN=c1s/c(=C3\C(=O)N(CC(C)(C)C)c4ccccc43)c(=O)n12 (stereo not given) | HT29 colon | 6.57% (active) |
| O=S(=O)(Nc1ncccn1)c1ccc(NC2Nc3nc4ccccc4nc3S2)cc1 (stereo not given) | HT29 colon | 106% (inactive) |
| CC/C(=C(\CC)c1ccc(OCC[N+](C)(C)C)cc1)c1ccc(OC)cc1 | HT29 colon | 39.5% (inactive) |
| COC(=O)/C(=C\c1c(-c2ccccc2)[nH]c2ccccc12)S(C)(=O)=O | HT29 colon | 8.37% (active) |

Could you now look at the following compound, please?
Ask | Entry under review: O=C(CCc1nnc2sc(COc3ccccc3)nn12)c1nc2ncccc2[nH]1 . Reported growth?
Reply | 106% (inactive)

====

- System: HCT-15 colon
- ASSAY: NCI-60 one-dose screen, 48 h (100 = growth as untreated, 0 = no growth, -100 = all killed)
- RECORDED CONDITIONS: 10 µM unless noted
- Procedure: Growth inhibition of the HCT-15 human tumor cell line is measured as a screen for anti-cancer activity. Cells are grown in 96 well plates and exposed to the test compound for 48 hours. Compounds are tested at a single concentration, which is 10^-5 M for most compounds. The reported endpoint is percent growth (GI% or GIPRCNT), where numbers from 0 - 100% represent growth inhibition, and numbers from -100% - 0 represent cell death. For example, a value of 40 represents 60% growth inhibition. […]
About 83,000 compounds went through this panel and 20% of them were active in at least one assay; those are over-represented in the sample as a whole.
Consider the following compounds; for each one, report its growth.
Answers are plain numbers, in %.

| COMPOUND | MEASUREMENT UNIT | OBS VALUE |
| --- | --- | --- |
| CCC1=C[C@]2(C3CC(=O)N(c4ccccc4)C3=O)CC(C(C)(C)C)C[C@@H]2[C@@H]2C(=O)N(c3ccccc3)C(=O)[C@H]12 (stereo partly specified) | % | 87.7 |
| O=C1NC(=S)NC(=O)C1=Cc1cn(Cc2cn(Cc3cccc4ccccc34)nn2)c2ccccc12 | % | 100 |
| O=C(Nc1nc2c(s1)CCc1c-2c(Br)n(Cc2ccccc2)c1Br)c1ccccc1 | % | 81.6 |
| O=C1/C(=C/c2ccc(O)cc2)COc2ccc(O)cc21 | % | 75.9 |
| CCOC(=O)c1ccc(N=Cc2sc(=O)[nH]c2O)cc1 | % | 99.1 |
| c1ccc2cc3c(Nc4ccc(N5CCOCC5)cc4)ccnc3cc2c1 | % | 91.1 |
| COC(=O)c1c2c(c(C)[n+]([O-])c1C)C(=O)C(NCc1ccc(Br)cc1)=CC2=O | % | 7.94 |
| O=C(Nc1ccc(Br)cc1F)c1cc(F)ccc1O | % | 2.25 |

// each compound listed below needs its growth
1. CN=c1ccc2nc3ccc(N)cc3sc-2c1
2. CC(=O)c1ccc(Cc2ccc(C(C)=O)s2)s1
3. Cc1nc(Nc2ccccn2)sc1C(=O)/C=C/c1ccc(Cl)cc1

Reply |
30.3
99
11.7
